Where do these numbers come from? They come from patent US20100120886A1.

Biological target: 5HT6 human recombinant receptor (Homo sapiens)
Construct: purchased Receptor Biology; host or cells: HEK-293 cell membranes
Sequence (P50406 whole entry): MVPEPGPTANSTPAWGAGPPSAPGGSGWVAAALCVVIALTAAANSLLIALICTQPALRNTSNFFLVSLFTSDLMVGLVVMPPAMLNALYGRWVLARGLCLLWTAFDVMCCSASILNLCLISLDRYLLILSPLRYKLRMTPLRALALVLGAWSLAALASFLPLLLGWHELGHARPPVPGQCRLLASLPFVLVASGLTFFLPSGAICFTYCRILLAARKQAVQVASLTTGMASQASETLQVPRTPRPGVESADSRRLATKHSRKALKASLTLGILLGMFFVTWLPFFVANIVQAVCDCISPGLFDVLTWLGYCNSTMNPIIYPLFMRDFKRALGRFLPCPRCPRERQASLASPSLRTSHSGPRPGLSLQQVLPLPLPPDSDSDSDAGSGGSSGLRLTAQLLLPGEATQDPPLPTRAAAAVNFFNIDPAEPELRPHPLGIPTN
Test: Binding with Serotonin Receptor 5HT6 ([3H]-LSD radioligand, HEK-293 cell membranes)
Details: compound 100 nM; [3H]-LSD 2.7 nM; HEK-293 membranes, 60 min, 37° C.
If the reported inhibition at 0.1 µM equals or exceeds 80%, assign Criterion met. If not, assign Criterion not met.

| query-smiles | target | label-class |
| --- | --- | --- |
| CCNCCc1c[nH]c2ccc(NS(=O)(=O)c3ccc4c(Cl)cccc4c3)cc12 | 5HT6 human recombinant receptor (Homo sapiens) | Criterion met |
| CNCCc1c[nH]c2ccc(NS(=O)(=O)c3cccc4ccccc34)cc12 | 5HT6 human recombinant receptor (Homo sapiens) | Criterion met |
| NCCc1c[nH]c2ccc(NS(=O)(=O)c3ccc4c(Cl)cccc4c3)cc12 | 5HT6 human recombinant receptor (Homo sapiens) | Criterion met |
| CNCCc1c[nH]c2ccc(NS(=O)(=O)c3ccc4c(Cl)cccc4c3)cc12 | 5HT6 human recombinant receptor (Homo sapiens) | Criterion not met |
| NCCc1c[nH]c2ccc(NS(=O)(=O)c3cccc4ccccc34)cc12 | 5HT6 human recombinant receptor (Homo sapiens) | Criterion not met |
| NCCc1c[nH]c2ccc(NS(=O)(=O)c3ccc4ccccc4c3)cc12 | 5HT6 human recombinant receptor (Homo sapiens) | Criterion met |
